measuredOn: T1, mesothelin-Fc recombinant protein (human, UniProt Q13421 296-580, limits assumed)
T1 construct: also called mesothelin-Fc protein; human Mesothelin-Fc; not shown: Fc part
assay: FACS of T cells expressing the scFv CAR, stained with Mesothelin-Fc + PE-anti-IgG-Fc; Mock T cells of the same block: 0.97
resultType: number in the Mesothelin-Fc positive gate (percent of cells, unit not given)
Format: numeric value only, no unit, no commentary.

Problem: # lookup: number in the Mesothelin-Fc positive gate (percent of cells, unit not given) of anti-mesothelin scFv-M27 (scFv) EIVLTQSPGTLSLSPGERATLSCRASQPIVASHLAWYQHKPGQAPRLLIYGASTRAAGIPDRFSGSGSGTDFTLTISRLEPEDFAVYFCQQYGISPFTFGPGTKVDIKGGGGSGGGGSGGGGSQVQLVQSGAEVKKPGESLKISCQGSGYSFTDYWIGWVRQAPGQGLEWMGWITPNNGNTNYAPKFQGRVTLTTDTSTSTAYMELRSLTSDDTAVYFCARRGRNSSGYLYYYSMDVWGQGTTVTVSS
Solution: 76.3

// data source = patent US11897966
